Target: GABAA2 receptors (α2, β3, γ3 receptor subunits transfected into Sf9 cells) (Homo sapiens, UniProt P47869+Q99928)
Sequence (P47869 29-451): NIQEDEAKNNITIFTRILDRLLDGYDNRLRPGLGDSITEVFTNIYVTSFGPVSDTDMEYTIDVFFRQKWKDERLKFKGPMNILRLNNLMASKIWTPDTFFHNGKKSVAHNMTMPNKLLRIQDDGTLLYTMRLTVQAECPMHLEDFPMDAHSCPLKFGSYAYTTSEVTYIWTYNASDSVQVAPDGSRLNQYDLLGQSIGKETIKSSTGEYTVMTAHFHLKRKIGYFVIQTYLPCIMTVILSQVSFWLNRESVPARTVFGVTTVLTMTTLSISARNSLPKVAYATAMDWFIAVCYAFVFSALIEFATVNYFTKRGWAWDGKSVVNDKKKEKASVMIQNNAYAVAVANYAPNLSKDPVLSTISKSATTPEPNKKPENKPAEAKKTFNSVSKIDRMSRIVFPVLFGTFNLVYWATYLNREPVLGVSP
Sequence (P28472 26-473 partner): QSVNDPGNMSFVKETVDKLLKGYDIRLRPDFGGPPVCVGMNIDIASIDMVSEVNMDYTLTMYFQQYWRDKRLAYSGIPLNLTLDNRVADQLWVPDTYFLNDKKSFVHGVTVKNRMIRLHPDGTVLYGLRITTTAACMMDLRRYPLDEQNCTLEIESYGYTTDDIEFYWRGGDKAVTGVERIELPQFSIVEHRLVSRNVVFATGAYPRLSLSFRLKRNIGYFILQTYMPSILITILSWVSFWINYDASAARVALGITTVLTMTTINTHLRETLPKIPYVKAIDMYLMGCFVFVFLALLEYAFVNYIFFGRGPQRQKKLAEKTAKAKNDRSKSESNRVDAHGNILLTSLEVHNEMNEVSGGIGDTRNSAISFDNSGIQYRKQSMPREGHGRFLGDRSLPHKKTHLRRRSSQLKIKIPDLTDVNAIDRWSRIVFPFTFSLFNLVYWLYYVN
Sequence (Q99928 18-467): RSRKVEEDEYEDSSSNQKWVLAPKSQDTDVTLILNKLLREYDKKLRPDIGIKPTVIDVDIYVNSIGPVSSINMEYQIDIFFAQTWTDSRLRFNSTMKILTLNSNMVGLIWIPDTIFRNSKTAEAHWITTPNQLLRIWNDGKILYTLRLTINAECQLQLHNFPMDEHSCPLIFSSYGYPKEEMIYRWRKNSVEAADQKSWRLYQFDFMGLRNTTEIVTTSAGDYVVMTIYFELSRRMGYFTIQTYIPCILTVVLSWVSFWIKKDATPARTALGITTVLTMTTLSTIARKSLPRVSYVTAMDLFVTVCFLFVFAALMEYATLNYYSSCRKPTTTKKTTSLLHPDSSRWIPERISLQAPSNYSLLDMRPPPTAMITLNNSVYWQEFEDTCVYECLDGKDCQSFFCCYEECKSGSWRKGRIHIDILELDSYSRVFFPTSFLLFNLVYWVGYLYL
Assay: GABAA2 binding method ([3H]-flunitrazepam displacement)
Conditions: [3H]-flunitrazepam ~2 nM, Sf9 membranes, 1 hr at 4° C.
observation.type: Ki (nM)
Write the value in nM as a bare number.

Short answer for "CCCNC(=O)c1nnc2c(-c3cc(Cl)cc(Cl)c3)cccc2c1N" : Ki was 22

Entry "CCCNC(=O)c1nnc2c(-c3ccc(C)nc3)cccc2c1N" , Ki reported as 4.11

// Ki lookup, compound = "CCCNC(=O)c1nnc2c(-c3ccccc3)c(OC)ccc2c1N" , result: 91.4

Entry "CCCNC(=O)c1nnc2c(-c3cnc(OC)nc3OC)c(F)ccc2c1N" , Ki reported as 0.918

// Ki lookup, compound = "CNC(=O)c1nnc2c(-c3cnc(OC)nc3OC)cccc2c1N" , result: 514

Documented Ki of "CCCNC(=O)c1nnc2c(-c3cc(F)ccc3C)cccc2c1N" : 5.56

The compound identified as "CCCNC(=O)c1nnc2c(-c3ccc(C)cc3)cccc2c1N" registered its Ki at 29

Sure, the documented Ki for "CCCNC(=O)c1nnc2c(-c3cccc(C(=O)N4CCC4)c3)cccc2c1N" is 3.44

Looking up "CCCNC(=O)c1nnc2c(-c3cncc(C(=O)N4CCC4)c3)cccc2c1N" , I see its Ki listed as 2.34

Lab book: Ki of "CCCNC(=O)c1nnc2c(-c3cccc(Cl)c3Cl)cccc2c1N" noted as 1.82

# Ki of "COc1ccc(-c2cccc3c(N)c(C(=O)NC4CC4)nnc23)c(OC)n1" = 1

Data point: "CCCNC(=O)c1nnc2c(-c3cc(Cl)ccc3OC)cccc2c1N" ; Ki = 1.11

Notebook: "CCCNC(=O)c1nnc2c(-c3ccc(F)c(F)c3)cccc2c1N" , Ki read as 20

Entry "CCCNC(=O)c1nnc2c(-c3ccc(OC)c(OC)c3)cccc2c1N" ; Ki = 3.88

Given item "CCCNC(=O)c1nnc2c(-c3cccc(OC(F)(F)F)c3)cccc2c1N" , the value recorded as its Ki is 47.8

So, "CCCNC(=O)c1nnc2c(-c3cc(F)ccc3C)c(F)ccc2c1N" ? Its Ki was 0.735

The reported value for "CCCNC(=O)c1nnc2c(-c3cc(C)ccc3OC)c(Cl)ccc2c1N" in terms of Ki is 2.89

// field: Ki; key: "CCNC(=O)c1nnc2c(-c3ccc(OC)cc3OC)cccc2c1N" ; value = 4.54

For record "CCCNC(=O)c1nnc2c(-c3cccc(OC)c3F)cccc2c1N" the listed Ki is 3.41

Input "CCCNC(=O)c1nnc2c(-c3ccc(OC)cc3C(F)(F)F)cccc2c1N" . Output Ki: 2.42

// recorded Ki for "CCCNC(=O)c1nnc2c(-c3cc(C(=O)N4CCC4)ccc3OC)cccc2c1N" : 18.4

Item: "CCCNC(=O)c1nnc2c(-c3cc(C)ccc3C)c(Cl)ccc2c1N" | Ki: 11.2

GET /value?item= "CCCNC(=O)c1nnc2c(-c3cc(OC)cc(OC)c3)c(F)ccc2c1N" &field=Ki returns 0.552

Lookup result for "CCCNC(=O)c1nnc2c(-c3cc(Cl)ccc3Cl)cccc2c1N" ; measured Ki: 0.71

So, "CCCNC(=O)c1nnc2c(-c3ccc(Cl)cc3)cccc2c1N" ? Its Ki was 37.2

The compound identified as "CCCNC(=O)c1nnc2c(-c3cc(F)ccc3F)cccc2c1N" registered its Ki at 0.996

Reported Ki for "CCNC(=O)c1nnc2c(-c3cnccc3OC)cccc2c1N" was 4.36

According to the records, this compound "CCCNC(=O)c1nnc2c(-c3ccccc3)c(Cl)ccc2c1N" displays Ki of 5.82

Ki reading for "CCCNC(=O)c1nnc2c(-c3cnc(OC)nc3)cccc2c1N" : 19.5

Ki recorded for this compound, "CCCNC(=O)c1nnc2c(-c3cnc(OC)c(F)c3)cccc2c1N" , is 22.1

Ki reading for "CCCNC(=O)c1nnc2c(-c3ccc(OC)cc3)cccc2c1N" : 15.4

Quick note, Ki for "Nc1c(C(=O)NCC2CC2)nnc2c(-c3ccccc3)cccc12" landed at 18.6

Notebook: "CCCNC(=O)c1nnc2c(-c3cnc4ccccc4c3)cccc2c1N" , Ki read as 12.3

Query "CCCCNC(=O)c1nnc2c(-c3cnccc3OC)cccc2c1N" yields Ki of 1.84

Briefly, Ki measured for "CCCNC(=O)c1nnc2c(-c3ccc4[nH]ccc4c3)cccc2c1N" : 35

Just so you know, measured Ki for "CCCNC(=O)c1nnc2c(-c3ccc(F)cc3OC)cccc2c1N" came out at 4.34

Summary for this compound, "COc1ccc(F)cc1-c1cccc2c(N)c(C(=O)NC3CC3)nnc12" : Ki is 8.22

Per the record, "CCCNC(=O)c1nnc2c(-c3ccc(Cl)cc3)c(F)ccc2c1N" has Ki of 8.72

Form field Ki, entry "CCCNC(=O)c1nnc2c(-c3nc(Br)ccc3OC)cccc2c1N" : 7.51

Memo: "CCNC(=O)c1nnc2c(-c3cnc(OC)c(F)c3)cccc2c1N" , reported Ki: 9

Item: "CCCNC(=O)c1nnc2c(-c3ccccn3)cccc2c1N" | Ki: 19.4

Ki measured on "CCCNC(=O)c1nnc2c(-c3ccc(C)c(C)c3)cccc2c1N" = 16.8

Please fill in: Ki reported for "CCCNC(=O)c1nnc2c(-c3cc(C)ccc3OC)c(F)ccc2c1N" = 0.937

Value of Ki reported for the compound "CCNC(=O)c1nnc2c(-c3cc(C)ccc3OC)cccc2c1N" is 10.5

Recorded result, "COc1ccc(-c2cccc3c(N)c(C(=O)NC4CCC4)nnc23)c(OC)c1" , Ki: 0.927

Field Ki (entry "CCCNC(=O)c1nnc2c(-c3ccccc3)c(F)ccc2c1N" ) reads 1

---

Biological target: GABAA2 receptors (α2, β3, γ3 receptor subunits transfected into Sf9 cells) (Homo sapiens, UniProt P47869+Q99928)
Experiment: GABAA2 binding method ([3H]-flunitrazepam displacement)
Conditions: [3H]-flunitrazepam ~2 nM, Sf9 membranes, 1 hr at 4° C.
Each record is given MET if its reported Ki is strictly below 2 nM. Records at or above 2 nM are given NOT MET.

Qu. Please let me know if "CCCNC(=O)c1nnc2c(-c3ccc(OC)c(C)c3)cccc2c1N" shows Ki below 2 nM.
Ans. NOT MET

Qu. Regarding "CCCNC(=O)c1nnc2c(-c3ccc(OC)cc3OC)cccc2c1N" , kindly confirm whether its Ki is beneath 2 nM.
Ans. NOT MET

Qu. Please check: Ki for "CCCNC(=O)c1nnc2c(-c3cc(F)ccc3OC)cccc2c1N" , strictly under 2 nM or not?
Ans. NOT MET

Qu. Quick check: Ki of "COc1cccc(F)c1-c1cccc2c(N)c(C(=O)NC3CC3)nnc12" under 2 nM?
Ans. MET

Qu. Is it true that Ki reported for "CCCNC(=O)c1nnc2c(-c3ccc(F)cc3F)cccc2c1N" is less than 2 nM?
Ans. MET

Qu. Hello, is Ki of the following molecule strictly smaller than 2 nM? "CCCNC(=O)c1nnc2c(-c3ccc(OC)cc3OC)c(C#N)ccc2c1N"
Ans. NOT MET

Qu. Take the molecule "CCCNC(=O)c1nnc2c(-c3cc(OC)ccc3Cl)c(F)ccc2c1N" and say whether its Ki is less than 2 nM.
Ans. MET

Qu. Consider the molecule "CCCNC(=O)c1nnc2c(-c3ccc(OC)c(F)c3)cccc2c1N" . Is its Ki strictly less than 2 nM?
Ans. NOT MET

Qu. Consider "CCCNC(=O)c1nnc2c(-c3cc(Cl)cc(Cl)c3)c(F)ccc2c1N" . Does its Ki lie strictly below 2 nM?
Ans. NOT MET

Qu. Is the reported Ki for "CCCNC(=O)c1nnc2c(-c3ccc(C)nc3F)cccc2c1N" strictly below 2 nM?
Ans. MET

Qu. Here's an entry: "CCCNC(=O)c1nnc2c(-c3cc(Cl)ccc3Cl)c(F)ccc2c1N" . Is its Ki below 2 nM?
Ans. MET

Qu. For this molecule, is Ki lower than 2 nM? "CCCNC(=O)c1nnc2c(-c3cc(F)cc(F)c3OC)c(F)ccc2c1N"
Ans. NOT MET

Qu. Threshold test, Ki < 2 nM: "CCCNC(=O)c1nnc2c(-c3ccc(F)cc3OC)c(F)ccc2c1N"
Ans. MET

Qu. Is 2 nM strictly greater than the molecule's reported Ki? molecule: "CCCNC(=O)c1nnc2c(-c3cc(OC)c(OC)c(OC)c3)cccc2c1N"
Ans. NOT MET

Qu. Decide: Ki of "CCCNC(=O)c1nnc2c(-c3cc(C)c(OC)c(C)c3)cccc2c1N" strictly below 2 nM?
Ans. NOT MET

Qu. Decide: Ki of "CCCNC(=O)c1nnc2c(-c3cc(F)ccc3F)c(F)ccc2c1N" strictly below 2 nM?
Ans. NOT MET

Qu. Dear reviewer, please state whether "CCCNC(=O)c1nnc2c(-c3cc(C(F)(F)F)ccc3Cl)cccc2c1N" has Ki strictly beneath 2 nM.
Ans. MET

Qu. Consider the molecule "CCCCNC(=O)c1nnc2c(-c3cc(C)ccc3OC)cccc2c1N" . Is its Ki strictly less than 2 nM?
Ans. NOT MET

Qu. Lab log: compare recorded Ki with 2 nM; is it strictly lower for "CCCNC(=O)c1nnc2c(-c3cc(OC)ccc3OC)c(Cl)ccc2c1N" ?
Ans. NOT MET

Qu. Does this molecule meet the criterion Ki < 2 nM? "CCCNC(=O)c1nnc2c(-c3ccc(OC)nc3OC)cccc2c1N"
Ans. MET

Qu. Is it true that Ki reported for "CCCNC(=O)c1nnc2c(-c3ccc(OC)cc3OC)c(Cl)ccc2c1N" is less than 2 nM?
Ans. NOT MET

Qu. Criterion: Ki strictly below 2 nM. Is it met by "CCCNC(=O)c1nnc2c(-c3cnccc3C)cccc2c1N" ?
Ans. MET
